These data points were gathered from the supplement of paper PMC12042874.

ASSAY COMMENT: amyloid nucleation score (Sup35N fusion, yeast selection) (log enrichment); library NNK3; higher = more nucleation; inactive = no reads after selection;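 note: zero at mode of non-aggregating sequences after 7 days selection at 30°C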
ASSAY READOUT: amyloid nucleation score

Worked examples follow.
{"columns": ["SUBSTANCE", "ASSAY READOUT", "REPORTED VALUE"],
 "data": [
  ["GTDSFAIYSWKIRLLSERYP", "amyloid nucleation score", "inactive"],
  ["LMLIFRLNCG", "amyloid nucleation score", 1.62],
  ["LFSQCSLITHG", "amyloid nucleation score", "inactive"],
  ["GISRMGMAEDPDSGWSHDYY", "amyloid nucleation score", "inactive"],
  ["LTNGRNTYFLLSRYYFGTTS", "amyloid nucleation score", "inactive"],
  ["NTNRLFNSLRTKLGFCFYSF", "amyloid nucleation score", "inactive"],
  ["GERTVLVKGLMRCIWVPVIW", "amyloid nucleation score", "inactive"],
  ["GHNVQGNRLMITYDLNIVGS", "amyloid nucleation score", "inactive"],
  ["ICEVNCGLVIWWVRRFEGAS", "amyloid nucleation score", "inactive"],
  ["LMLANVNAA", "amyloid nucleation score", "inactive"]
]}

Short answer for "LHAMPLEGFLHLCPKLTCHQ" : amyloid nucleation score was 0.676

Short answer for "VPIRECTMLSSMSWTGEPSY" : amyloid nucleation score was inactive

Short answer for "SKIGILWCLMSEECYLFQFR" : amyloid nucleation score was inactive

Short answer for "LLVFSTGHARRFFSSYESRG" : amyloid nucleation score was 1.28

Short answer for "PMSVRRTVFCPSTSM" : amyloid nucleation score was inactive

Short answer for "DILIREFDYLTSTHLDDKIR" : amyloid nucleation score was inactive

Short answer for "RIFWHQCGYGSIRLWGQLDR" : amyloid nucleation score was -0.531

Short answer for "LIIHIFLVWDWSSIERRSIS" : amyloid nucleation score was inactive

Short answer for "NFRPEKHINLMVCKSLPFV" : amyloid nucleation score was 0.705

Short answer for "GRTSWGRRR" : amyloid nucleation score was inactive

Short answer for "INVTLCCTMYD" : amyloid nucleation score was 3.02

Short answer for "SGDNMPAWVDHMSCHKRWSG" : amyloid nucleation score was -0.474

Short answer for "ALLYRERKYSMLVKFVVYRS" : amyloid nucleation score was inactive

Short answer for "VNFFGR" : amyloid nucleation score was inactive

Short answer for "RSCSCLSRDKYNYLLIDSLV" : amyloid nucleation score was inactive

Short answer for "IYNRNGRF" : amyloid nucleation score was inactive
